System: MKN45 cells
Assay: MKN45 cell proliferation assay (CellTiter-Glo)
Format: cell-based
Conditions: Homo sapiens, MKN-45, 72 h; MKN45 cell line; 3 days incubation; at least duplicate experiments; read-out: Prolif. IC50
pIC50: −log10 of the molar value.
readout-kind: pIC50

Previously resolved entries follow.
- compound: "Cc1c(-c2cnc3[nH]cc(C(C)c4c(Cl)ccc(F)c4O)c3c2)cnn1[C@H]1CC[C@H](O)CC1 (stereo partly shown)"
  pIC50: "6.70 to 7.30"
- compound: "Cc1c(-c2cnc3[nH]cc([C@H](C)c4c(OC[C@@H](O)CO)ccc(F)c4Cl)c3c2)cnn1C"
  pIC50: "< 6.00"
- compound: "COc1ccc(F)c(Cl)c1[C@@H](C)c1c[nH]c2ncc(-c3cnn([C@H]4CC[C@H](N(C)C)CC4)c3C)cc12"
  pIC50: "≥ 7.30"
- compound: "COc1ccc(F)c(Cl)c1[C@@H](C)c1c[nH]c2ncc(-c3cnn(CC(C)(C)O)c3C)cc12"
  pIC50: "≥ 7.30"
- compound: "COc1ccc(F)c(Cl)c1[C@@H](C)c1c[nH]c2ncc(-c3cnc(C)n3C)cc12"
  pIC50: "6.70 to 7.30"

Consider the compound shown here: `COc1ccc(F)c(Cl)c1[C@@H](C)c1c[nH]c2ncc(-c3cnn(C[C@@H](O)CO)c3C(F)(F)F)cc12` What is its recorded pIC50?
6.70 to 7.30

Consider the compound shown here: `Cc1c(-c2cnc3[nH]cc([C@H](C)c4c(OC[C@H](O)CO)ccc(F)c4Cl)c3c2)cnn1C` What is its recorded pIC50?
< 6.00

###

Target: Aurora B (Homo sapiens)
Construct: HT-29 cells grown in complete growth media
Sequence (Q96GD4 whole entry): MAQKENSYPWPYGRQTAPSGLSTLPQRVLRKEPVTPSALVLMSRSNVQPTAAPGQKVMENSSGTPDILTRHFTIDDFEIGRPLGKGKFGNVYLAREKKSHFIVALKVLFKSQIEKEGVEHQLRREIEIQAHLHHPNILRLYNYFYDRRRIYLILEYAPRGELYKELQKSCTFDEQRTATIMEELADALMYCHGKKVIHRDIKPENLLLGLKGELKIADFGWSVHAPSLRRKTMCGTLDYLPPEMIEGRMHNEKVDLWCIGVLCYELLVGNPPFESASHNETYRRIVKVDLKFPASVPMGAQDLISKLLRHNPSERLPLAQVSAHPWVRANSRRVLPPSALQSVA
Assay: Aurora B cell mechanistic assay (HT-29), phospho-Histone H3 (Ser10) ELISA
Settings: HT-29 cell line; inhibition of phospho-Histone H3 (Ser10); at least duplicate experiments (italicized if single experiment); read-out: Aurora B mech IC50
pIC50: −log10 of the molar value.
readout-kind: pIC50

Previously resolved entries follow.
- smiles-entry: "Cc1c(-c2cnc3[nH]cc([C@H](C)c4c(OC(F)F)ccc(F)c4Cl)c3c2)cnn1[C@@H]1C[C@@H](O)[C@@H](O)C1"
  pIC50: "6.00 to 6.70"
- smiles-entry: "COc1ccc(F)c(Cl)c1[C@@H](C)c1c[nH]c2ncc(-c3c(CO)nn(C)c3C)cc12"
  pIC50: "< 6.00"
- smiles-entry: "COc1ccc(F)c(Cl)c1[C@@H](C)c1c[nH]c2ncc(-c3c(C)nn(C)c3CO)cc12"
  pIC50: "< 6.00"

Now let's try a different one.
Consider the molecule shown here: `COc1ccc(F)c(Cl)c1[C@@H](C)c1c[nH]c2ncc(-c3cnn([C@@H]4C[C@@H](O)[C@@H](O)C4)c3C)cc12` What is its recorded pIC50?
< 6.00

###

Tested on: MKN45 cells
Experiment: MKN45 cell proliferation assay (CellTiter-Glo)
Type: cell-based
Settings: Homo sapiens, MKN-45, 72 h; MKN45 cell line; 3 days incubation; at least duplicate experiments; read-out: Prolif. IC50
readout-kind: IC50

- smiles-entry: "COc1cc(OC)c(Cl)c([C@@H](C)c2c[nH]c3ncc(-c4cnn([C@H]5CC[C@H](O)CC5)c4C)cc23)c1Cl"
  system-under-test: "MKN45 cells"
  IC50: "≤ 0.05 µM"
- smiles-entry: "CCc1nn([C@H]2CC[C@H](O)CC2)cc1-c1cnc2[nH]cc([C@H](C)c3c(OC)ccc(F)c3Cl)c2c1"
  system-under-test: "MKN45 cells"
  IC50: "≤ 0.05 µM"
- smiles-entry: "CC(=O)N1CCC(n2ncc(-c3cnc4[nH]cc([C@H](C)c5c(OC(F)F)ccc(F)c5Cl)c4c3)c2C)CC1"
  system-under-test: "MKN45 cells"
  IC50: "≤ 0.05 µM"
- smiles-entry: "COc1ccc(F)c(Cl)c1[C@@H](C)c1c[nH]c2ncc(-c3cnn(C[C@H](O)CO)c3C)cc12"
  system-under-test: "MKN45 cells"
  IC50: "≤ 0.05 µM"
- smiles-entry: "COc1ccc(F)c(Cl)c1[C@@H](C)c1c[nH]c2ncc(-c3cn([C@@H]4C[C@@H](O)[C@@H](O)C4)nc3C)cc12"
  system-under-test: "MKN45 cells"
  IC50: "≤ 0.05 µM"
- smiles-entry: "COc1ccc(F)c(Cl)c1[C@@H](C)c1c[nH]c2ncc(-c3cn(C)nc3OC)cc12"
  system-under-test: "MKN45 cells"
  IC50: "≤ 0.05 µM"

Record `COc1ccc(F)c(Cl)c1[C@@H](C)c1c[nH]c2ncc(-c3cnn(C[C@H](O)CO)c3C(F)(F)F)cc12` : what is its IC50 with MKN45 cells?
0.05 to 0.2 µM

Record `COc1ccc(F)c(Cl)c1[C@@H](C)c1c[nH]c2ncc(-c3cncn3C)cc12` : what is its IC50 with MKN45 cells?
0.05 to 0.2 µM

Record `Cc1c(-c2cnc3[nH]cc([C@H](C)c4c(Cl)ccc(F)c4Cl)c3c2)cnn1[C@H]1CC[C@H](O)CC1` : what is its IC50 with MKN45 cells?
≤ 0.05 µM

Record `[2H]C([2H])([2H])Oc1ccc(F)c(Cl)c1[C@@H](C)c1c[nH]c2ncc(-c3cnn([C@H]4CC[C@H](O)CC4)c3C)cc12` : what is its IC50 with MKN45 cells?
≤ 0.05 µM

Record `Cc1c(-c2cnc3[nH]cc([C@@H](CF)c4c(OC(F)F)ccc(F)c4Cl)c3c2)cnn1[C@H]1CC[C@H](O)CC1` : what is its IC50 with MKN45 cells?
0.2 to 1 µM

Record `COc1ccc(F)c(Cl)c1[C@@H](C)c1c[nH]c2ncc(-c3cnn([C@H]4CC[C@@H](N5CCN(C(C)=O)CC5)CC4)c3C)cc12` : what is its IC50 with MKN45 cells?
≤ 0.05 µM

Record `[2H][C@@](C)(c1c(OC(F)F)ccc(F)c1Cl)c1c[nH]c2ncc(-c3cnn([C@H]4CC[C@H](O)CC4)c3C)cc12` : what is its IC50 with MKN45 cells?
≤ 0.05 µM

Record `COc1ccc(F)c(Cl)c1[C@@H](C)c1c[nH]c2ncc(-c3cn(C)nc3C#N)cc12` : what is its IC50 with MKN45 cells?
0.05 to 0.2 µM
